Form field: IC50 (one value per entry).
Tested on: HEK-293 cells
assay_summary: HEK-293 cytotoxicity detection (CellTiter-Glo)
Assay type: cell-based
condition_info: Homo sapiens, 72 h, 72 h incubation, CellTiter-Glo luminescence, read-out: HEK293

molecule	target_or_system	comparison_operator	IC50 / nM
NC(=O)c1c(-c2ccc(Oc3ccccc3)cc2)nn2c1Nc1cc(NC(=O)C3CCN(CC4CCN(c5ccc6c(c5)C(=O)N(C5CCC(=O)NC5=O)C6=O)CC4)CC3)ccc1CC2 (centres unmarked)	HEK-293 cells	=	2510
NC(=O)c1c(-c2ccc(Oc3ccccc3)cc2)nn2c1Nc1cc(C3CCN(CCC4CCN(c5ccc(N6CCC(=O)NC6=O)cc5)CC4)CC3)ccc1CC2	HEK-293 cells	=	445
Cc1c(C(=O)Nc2cscn2)ccc(-c2nn3c(c2C(N)=O)Nc2ccc(N4CCN(C[C@H]5CCN(c6ccc(N7CCC(=O)NC7=O)cc6)C5)CC4)cc2CC3)c1F	HEK-293 cells	>	10000
Cc1c(C(=O)Nc2cn(C)cn2)ccc(-c2nn3c(c2C(N)=O)Nc2ccc(N4CCN(C(=O)C5CCN(c6ccc(N7CCC(=O)NC7=O)cc6)CC5)CC4)cc2CC3)c1F	HEK-293 cells	>	10000
NC(=O)c1c(-c2ccc(Oc3ccccc3)cc2)nn2c1Nc1ccc(C(=O)N3CCC(CN4CCN(c5cc6c(cc5F)C(=O)N(C5CCC(=O)NC5=O)C6=O)CC4)CC3)cc1CC2 (centres unmarked)	HEK-293 cells	=	509
COc1ccccc1C(=O)N[C@H](C)c1ccc(-c2nn3c(c2C(N)=O)Nc2ccc(N4CCN(CC5CCN(c6ccc(N7CCC(=O)NC7=O)cc6)CC5)CC4)cc2CC3)cc1	HEK-293 cells	>	10000
Cc1ccnc(NC(=O)c2ccc(-c3nn4c(c3C(N)=O)Nc3ccc(N5CCN(CC6CCN(c7ccc(N8CCC(=O)NC8=O)cc7)CC6)CC5)cc3CC4)cc2)c1	HEK-293 cells	>	10000
Cc1cccc(NC(=O)c2ccc(-c3nn4c(c3C(N)=O)Nc3ccc(N5CCN(C[C@H]6CCN(c7ccc(N8CCC(=O)NC8=O)cc7)C6)CC5)cc3CC4)c(F)c2C)n1	HEK-293 cells	>	10000
NC(=O)c1c(-c2ccc(Oc3ccccc3)cc2)nn2c1Nc1ccc(C(=O)NC3CCN(c4ccc5c(c4)C(=O)N(C4CCC(=O)NC4=O)C5=O)CC3)cc1CC2 (centres unmarked)	HEK-293 cells	=	65.6
Cc1cccc(NC(=O)c2ncc(-c3nn4c(c3C(N)=O)Nc3ccc(N5CCN(CC6CCN(c7ccc(N8CCC(=O)NC8=O)cc7)CC6)CC5)cc3CC4)cc2C)n1	HEK-293 cells	=	332
Cc1cccc(NC(=O)c2ccc(-c3nn4c(c3C(N)=O)Nc3ccc(N5CCN(CCc6cccc7c6oc(=O)n7C6CCC(=O)NC6=O)CC5)cc3CC4)c(F)c2C)n1 (centres unmarked)	HEK-293 cells	>	10000

---

Test system: HEK-293 cells
assay_summary: HEK-293 cytotoxicity detection (CellTiter-Glo)
Assay type: cell-based
condition_info: Homo sapiens, 72 h, 72 h incubation, CellTiter-Glo luminescence, read-out: HEK293
Form field: IC50 (one value per entry).

compound	value_units	comparison_operator	IC50
COc1cnccc1C(=O)NCc1ccc(-c2nn3c(c2C(N)=O)Nc2ccc(N4CCN(CC5CCN(c6ccc(N7CCC(=O)NC7=O)cc6)CC5)CC4)cc2CC3)cc1C [Example C37]	µM	>	10
Cc1cccc(NC(=O)c2ncc(-c3nn4c(c3C(N)=O)Nc3ccc(N5CCN(C6CC(c7ccc([C@H]8CCC(=O)NC8=O)cc7)C6)CC5)cc3CC4)cc2C)n1 (some centres unmarked) [Example B34]	µM	=	0.168
Cc1cccc(N(CC(=O)OC(C)(C)C)C(=O)c2ccc(-c3nn4c(c3C(N)=O)Nc3ccc(N5CCN(CC6CCN(c7ccc(N8CCC(=O)N(CC(=O)OC(C)(C)C)C8=O)cc7)CC6)CC5)cc3CC4)c(F)c2C)n1 [Example B77]	µM	=	0.0383
COc1ccccc1C(=O)NCc1ccc(-c2nn3c(c2C(N)=O)Nc2ccc(N4CCN(CC5CCN(c6ccc(N7CCC(=O)NC7=O)cc6)CC5)CC4)cc2CC3)cc1F [Example C19]	µM	=	0.143
Cc1c(C(=O)Nc2nc(C(F)(F)F)n[nH]2)ccc(-c2nn3c(c2C(N)=O)Nc2ccc(N4CCN(CC5CCN(c6ccc(N7CCC(=O)NC7=O)cc6)CC5)CC4)cc2CC3)c1F [Example B85]	µM	>	10
Cc1cc(-c2nn3c(c2C(N)=O)Nc2ccc(N4CCN(CC5CCN(c6ccc(N7CCC(=O)NC7=O)cc6)CC5)CC4)cc2CC3)ccc1C(=O)Nc1cc(C(F)(F)F)ccn1 [Example B5]	µM	>	10
NC(=O)c1c(-c2ccc(Oc3ccccc3)cc2)nn2c1Nc1ccc(N3CCN(c4ccc5c(c4)C(=O)N(C4CCC(=O)NC4=O)C5=O)CC3)cc1CC2 (centres unmarked) [Example A7]	µM	=	0.178
CC(Nc1cc(C(F)(F)F)ccn1)c1ccc(-c2nn3c(c2C(N)=O)Nc2ccc(N4CCN(CC5CCN(c6ccc(N7CCC(=O)NC7=O)cc6)CC5)CC4)cc2CC3)cc1 (centres unmarked) [Example C15]	µM	=	8.85
COc1ccc(C(F)(F)F)cc1C(=O)NCc1ccc(-c2nn3c(c2C(N)=O)Nc2ccc(N4CCN(CC5CCN(c6ccc(N7CCC(=O)NC7=O)cc6)CC5)CC4)cc2CC3)c(F)c1F [Example C28]	µM	>	10
COc1ncccc1C(=O)NCc1ccc(-c2nn3c(c2C(N)=O)Nc2ccc(N4CCN(CC5CCN(c6ccc(N7CCC(=O)NC7=O)cc6)CC5)CC4)cc2CC3)cc1C [Example C34]	µM	>	10
COc1ccccc1C(=O)NCc1ccc(-c2nn3c(c2C(N)=O)Nc2ccc(N4CCN(CC5CCN(c6ccc(N7CCC(=O)NC7=O)cc6)CC5)CC4)cc2CC3)cc1C(F)(F)F [Example C45]	µM	>	10
